measured on: AmGH33B (Akkermansia muciniphila)
Sequence (B2UN42 19-674): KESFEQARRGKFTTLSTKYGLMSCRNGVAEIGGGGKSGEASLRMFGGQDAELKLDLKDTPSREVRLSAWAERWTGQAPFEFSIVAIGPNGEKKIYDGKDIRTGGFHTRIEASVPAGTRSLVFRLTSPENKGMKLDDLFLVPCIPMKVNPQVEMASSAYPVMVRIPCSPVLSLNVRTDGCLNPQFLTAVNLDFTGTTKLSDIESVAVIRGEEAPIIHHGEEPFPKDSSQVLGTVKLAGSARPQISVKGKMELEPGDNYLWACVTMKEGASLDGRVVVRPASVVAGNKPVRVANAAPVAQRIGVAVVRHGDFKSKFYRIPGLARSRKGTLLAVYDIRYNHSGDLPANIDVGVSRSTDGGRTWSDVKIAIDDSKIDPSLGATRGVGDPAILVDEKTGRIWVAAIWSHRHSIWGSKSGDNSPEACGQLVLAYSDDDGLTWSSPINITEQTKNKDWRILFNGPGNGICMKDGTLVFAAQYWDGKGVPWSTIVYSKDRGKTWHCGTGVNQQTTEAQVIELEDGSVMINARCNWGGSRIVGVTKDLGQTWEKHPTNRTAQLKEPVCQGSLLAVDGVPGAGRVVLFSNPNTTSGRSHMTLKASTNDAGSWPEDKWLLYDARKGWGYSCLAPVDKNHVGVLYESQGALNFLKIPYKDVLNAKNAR
pIC50: −log10 of the molar value.
quantity: pIC50

[ask] May I ask what pIC50 has been recorded for "CC(=O)N[C@H]1[C@H]([C@H](O)[C@H](O)CO)OC(C(=O)O)=C[C@@H]1O" ?
[reply] > 3.70

====

measured on: AmGH29B (Akkermansia muciniphila, UniProt B2ULU6)
Construct: gene Amuc_0146; mature peptide lacking the signal peptide
Sequence (B2ULU6 27-711): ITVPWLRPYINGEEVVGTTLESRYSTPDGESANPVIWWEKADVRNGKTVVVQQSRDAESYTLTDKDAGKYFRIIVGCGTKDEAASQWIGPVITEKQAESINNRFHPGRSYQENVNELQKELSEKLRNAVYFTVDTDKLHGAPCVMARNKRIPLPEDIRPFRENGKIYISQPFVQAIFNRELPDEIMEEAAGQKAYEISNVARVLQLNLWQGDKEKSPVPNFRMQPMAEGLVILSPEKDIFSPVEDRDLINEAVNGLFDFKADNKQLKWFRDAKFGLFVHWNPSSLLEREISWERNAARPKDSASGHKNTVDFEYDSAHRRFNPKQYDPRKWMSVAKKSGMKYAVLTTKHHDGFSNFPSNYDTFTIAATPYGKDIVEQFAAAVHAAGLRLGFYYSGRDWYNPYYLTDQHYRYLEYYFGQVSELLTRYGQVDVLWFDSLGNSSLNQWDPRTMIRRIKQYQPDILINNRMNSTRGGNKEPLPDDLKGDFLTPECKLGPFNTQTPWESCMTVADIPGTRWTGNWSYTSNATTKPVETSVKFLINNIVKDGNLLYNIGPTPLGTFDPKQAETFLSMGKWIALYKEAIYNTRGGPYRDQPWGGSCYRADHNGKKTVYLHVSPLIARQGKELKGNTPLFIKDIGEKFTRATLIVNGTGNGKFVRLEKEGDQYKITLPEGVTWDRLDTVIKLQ
test description: inhibition of pNPFuc hydrolysis, A405
Assay type: biochemical
quantity: IC50

[ask] What IC50 appears in the records for this molecule with AmGH29B (Akkermansia muciniphila, UniProt B2ULU6)? C[C@@H]1NC[C@@H](O)[C@H](O)[C@@H]1O [DFJ, 1-Deoxyfuconojirimycin]
[reply] < 54 µM

====

measured on: AmGH29A (Akkermansia muciniphila)
Sequence (B2UL68 20-538): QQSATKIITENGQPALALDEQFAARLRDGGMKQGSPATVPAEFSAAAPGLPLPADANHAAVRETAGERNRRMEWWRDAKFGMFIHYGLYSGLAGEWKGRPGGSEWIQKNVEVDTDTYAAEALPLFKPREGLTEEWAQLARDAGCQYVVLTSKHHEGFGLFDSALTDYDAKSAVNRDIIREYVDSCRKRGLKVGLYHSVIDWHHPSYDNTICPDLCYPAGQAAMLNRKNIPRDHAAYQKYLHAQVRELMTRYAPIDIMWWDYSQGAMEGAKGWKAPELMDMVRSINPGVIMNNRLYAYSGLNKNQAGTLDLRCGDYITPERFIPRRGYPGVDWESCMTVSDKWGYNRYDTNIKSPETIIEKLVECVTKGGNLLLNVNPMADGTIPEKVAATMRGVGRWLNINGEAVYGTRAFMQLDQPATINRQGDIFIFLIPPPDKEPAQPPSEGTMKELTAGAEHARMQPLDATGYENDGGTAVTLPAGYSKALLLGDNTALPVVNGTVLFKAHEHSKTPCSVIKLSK
quantity: IC50

[ask] May I ask what IC50 has been recorded for "C[C@@H]1NC[C@@H](O)[C@H](O)[C@@H]1O" ?
[reply] < 54 µM

====

measured on: AmGH95B (Akkermansia muciniphila, UniProt B2UR61)
Construct: gene Amuc_1120; mature peptide lacking the signal peptide
Sequence (B2UR61 23-796): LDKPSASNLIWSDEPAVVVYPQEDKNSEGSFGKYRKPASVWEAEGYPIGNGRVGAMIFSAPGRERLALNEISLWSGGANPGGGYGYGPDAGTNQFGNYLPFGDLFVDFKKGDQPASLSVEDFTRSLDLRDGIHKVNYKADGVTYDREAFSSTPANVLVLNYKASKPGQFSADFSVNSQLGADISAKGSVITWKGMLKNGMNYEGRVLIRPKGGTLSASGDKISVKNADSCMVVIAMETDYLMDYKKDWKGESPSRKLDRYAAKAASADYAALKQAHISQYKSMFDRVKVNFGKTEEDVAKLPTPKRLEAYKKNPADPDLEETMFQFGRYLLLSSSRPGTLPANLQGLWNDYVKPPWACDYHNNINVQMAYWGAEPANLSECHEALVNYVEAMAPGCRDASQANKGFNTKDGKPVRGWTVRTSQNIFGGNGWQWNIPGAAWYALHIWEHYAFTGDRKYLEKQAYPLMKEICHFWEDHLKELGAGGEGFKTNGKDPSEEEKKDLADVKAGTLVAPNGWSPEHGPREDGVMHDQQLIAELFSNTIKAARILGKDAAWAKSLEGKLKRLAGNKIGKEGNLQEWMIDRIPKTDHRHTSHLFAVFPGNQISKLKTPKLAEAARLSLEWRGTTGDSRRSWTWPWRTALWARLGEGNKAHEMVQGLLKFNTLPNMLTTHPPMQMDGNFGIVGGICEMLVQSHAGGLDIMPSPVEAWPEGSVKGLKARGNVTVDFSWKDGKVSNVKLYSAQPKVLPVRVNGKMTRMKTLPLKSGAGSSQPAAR
test description: inhibition of pNPFuc hydrolysis, A405
Assay type: biochemical
pIC50: −log10 of the molar value.
quantity: pIC50

[ask] May I ask what pIC50 has been recorded for "C[C@@H]1NC[C@@H](O)[C@H](O)[C@@H]1O" ?
[reply] > 4.27

====

measured on: AmGH29C (Akkermansia muciniphila, UniProt B2UNB9)
Sequence (B2UNB9 41-709): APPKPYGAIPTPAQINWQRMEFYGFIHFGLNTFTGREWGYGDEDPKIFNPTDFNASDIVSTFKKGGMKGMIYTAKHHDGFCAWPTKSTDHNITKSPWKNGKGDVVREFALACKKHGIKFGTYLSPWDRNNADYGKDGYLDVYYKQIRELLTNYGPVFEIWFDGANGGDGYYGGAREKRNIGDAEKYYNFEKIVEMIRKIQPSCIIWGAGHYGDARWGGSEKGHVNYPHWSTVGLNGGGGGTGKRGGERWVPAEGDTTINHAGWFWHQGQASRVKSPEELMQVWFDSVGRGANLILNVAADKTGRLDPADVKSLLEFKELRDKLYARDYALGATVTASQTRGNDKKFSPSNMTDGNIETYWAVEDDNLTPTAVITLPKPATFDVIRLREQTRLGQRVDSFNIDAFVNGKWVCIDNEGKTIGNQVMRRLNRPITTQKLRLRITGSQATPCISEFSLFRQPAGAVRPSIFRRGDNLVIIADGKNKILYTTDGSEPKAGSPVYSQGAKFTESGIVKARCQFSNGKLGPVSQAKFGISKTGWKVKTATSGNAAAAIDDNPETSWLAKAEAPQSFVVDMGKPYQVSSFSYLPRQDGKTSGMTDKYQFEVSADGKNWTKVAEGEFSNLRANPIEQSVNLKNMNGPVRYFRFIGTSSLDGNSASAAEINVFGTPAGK
quantity: IC50

[ask] What IC50 appears in the records for this molecule with AmGH29C (Akkermansia muciniphila, UniProt B2UNB9)? "C[C@@H]1NC[C@@H](O)[C@H](O)[C@@H]1O"
[reply] < 54 µM
